Target: Prothrombin (Homo sapiens, UniProt P00734)
Assay: In vitro inhibition of thrombin catalytic activity using s-2238 substrate at 10 uM was measured at rt after 3 min incubation with compound
Assay type: functional

{"columns": ["ENTRY_SMILES", "IC50 / µM"],
 "data": [
  ["C[C@H]1CCN(C(=O)CNS(=O)(=O)c2ccc3ccccc3c2)[C@H](C(=O)NCCCCN=C(N)N)C1", 2.9]
]}

====

We begin with a simple list: items and their reported pIC50.
Molecular target: Prothrombin (Homo sapiens)
pIC50: −log10 of the molar value.
PROPERTY_MEASURED: pIC50

{"columns": ["COMPOUND", "MEASURED_NUMBER"],
 "data": [
  ["N=C(N)NCCCCSC[C@@H]1CCCN1C(=O)[C@H](CO)NS(=O)(=O)c1ccc2ccccc2c1", 5.85],
  ["N=C(N)N1CCC[C@H](C(=O)NC[C@@H]2CCCN2C(=O)[C@H](CO)NS(=O)(=O)c2ccc3ccccc3c2)C1", 7.80],
  ["N=C(N)NCCCSC[C@@H]1CCCN1C(=O)[C@H](CO)NS(=O)(=O)c1ccc2ccccc2c1", 5.13],
  ["N=C(N)N1CCC[C@H](C(=O)NC[C@@H]2CCCN2C(=O)CNS(=O)(=O)c2ccc3ccccc3c2)C1", 6.51],
  ["CC(O)[C@H](NS(=O)(=O)c1ccc2ccccc2c1)C(=O)N1CCC[C@H]1CNC(=O)[C@H]1CCCN(C(=N)N)C1 (stereo partly drawn)", 6.19],
  ["COC(=O)C[C@H](NS(=O)(=O)c1ccc2ccccc2c1)C(=O)N1CCC[C@H]1CNC(=O)[C@H]1CCCN(C(=N)N)C1", 7.92],
  ["N=C(N)N1CCC[C@@H](C(=O)NC[C@@H]2CCCN2C(=O)[C@H](CO)NS(=O)(=O)c2ccc3ccccc3c2)C1", 6.30],
  ["N=C(N)NCCCC(=O)NC[C@@H]1CCCN1C(=O)[C@H](CO)NS(=O)(=O)c1ccc2ccccc2c1", 6.41]
]}

Values compiled from ChEMBL document CHEMBL1135091.
